tested on: stomach motility; assay: Determination of effect on stomach motility in anaesthetised rats; format: in vivo, rats of the SIV 50 strain; conditions: rat, 100 μmole/kg i.p.
Would you mind telling me the reported Gastric Tone Increase of each entry?

Known Gastric Tone Increase results, listed for orientation:
CN(C)C=NCC1CNC(=O)c2cccc3[nH]cc1c23 (stereo not drawn) [Example 15]: 3.1 cm H2O
CC(C)NCC1CNC(=O)c2cccc3[nH]cc1c23 (stereo not drawn) [Example 6]: 15.4 cm H2O
CCCN(CCC)CC1CNC(=O)c2cccc3[nH]cc1c23 (stereo not drawn) [Example 40]: 6.5 cm H2O
CCN(CC)CC1CNC(=O)c2cccc3[nH]cc1c23 (stereo not drawn) [Example 5b]: 3.8 cm H2O
CCCCNCC1CNC(=O)c2cccc3[nH]cc1c23 (stereo not drawn) [Example 41]: 2.7 cm H2O

Please give Gastric Tone Increase for each item listed below.
1. O=C1NC(CNC2CCCCC2)Cc2c[nH]c3cccc1c23 (stereo not drawn) [Example 28]
2. COc1ccc(CCn2cc3c4c(cccc42)C(=O)NCC3CN)cc1OC (stereo not drawn) [Example 36]
3. O=C1NC(CNC2CC2)Cc2c[nH]c3cccc1c23 (stereo not drawn) [Example 45]
4. CCCNCC1CNC(=O)c2cccc3[nH]cc1c23 (stereo not drawn) [Example 38]
5. NCC1CNC(=O)c2cccc3c2c1cn3CCCc1ccccc1 (stereo not drawn) [Example 13]
6. CNCC1CNC(=O)c2cccc3[nH]cc1c23 (racemic) [Example 4]
7. O=C1NCC(CN2CCCC2)c2c[nH]c3cccc1c23 (stereo not drawn) [Example 37]

0.5 cm H2O
11.5 cm H2O
3.5 cm H2O
12.4 cm H2O
7.2 cm H2O
9.0 cm H2O
4.0 cm H2O

----------
test system: 5-HT1-like receptors; assay: Serotonin-agonistic contractions in segments of the isolated basilar artery of the pig (in vitro antimigraine activity); assay type: cell-based; settings: porcine basilar artery, in vitro; concentrations in mol/l
Where a name gives a salt, the structure may show the parent alone.
property.name: pD2 = neg. log of Concentration Which Produces 50% of Maximum Contraction
One number for each entry.

Known pD2 = neg. log of Concentration Which Produces 50% of Maximum Contraction results, listed for orientation:
Cn1cc2c3c(cccc31)C(=O)NCC2CN (stereo not drawn): 6.4
NC[C@@H]1CNC(=O)c2cccc3[nH]cc1c23: 6.7
COCN1CC(CN)c2c[nH]c3cccc(c23)C1=O (stereo not drawn): 6.0

Please give pD2 = neg. log of Concentration Which Produces 50% of Maximum Contraction for each item listed below.
1. NCC1CNC(=O)c2cccc3[nH]cc1c23 (racemic)
2. CNC[C@@H]1CNC(=O)c2cccc3[nH]cc1c23 [Example 4a, hydrochloride]
3. CNCC1CNC(=O)c2cccc3[nH]cc1c23 (racemic)

6.5
7.0
6.8

----------
tested on: stomach motility; assay: Determination of effect on stomach motility in anaesthetised rats; assay type: in vivo, rats of the SIV 50 strain; conditions: ip; rat, 100 μmole/kg i.p.; read-out: Maximum Amplitude Increase (increase in % of control amplitude)
Would you mind telling me the reported change in vivo at 100 µmol/kg of each entry?
Please answer using a numeric value trailed by its unit.

CN(C)CC1CNC(=O)c2cccc3[nH]cc1c23 (centres unmarked): 569%
NCCC1Cc2c[nH]c3cccc(c23)C(=O)N1 (centres unmarked): 569%
O=C1NC(CNC2CCCCC2)Cc2c[nH]c3cccc1c23 (centres unmarked): 17%
COc1ccc(CCn2cc3c4c(cccc42)C(=O)NCC3CN)cc1OC (centres unmarked): 351%

If you can, please state the reported change in vivo at 100 µmol/kg value of CCCN(CCC)CC1CNC(=O)c2cccc3[nH]cc1c23 (centres unmarked) . 997%

Data origin, for the record: patent US5272143A
